target: insulin receptor of isolated rat adipocytes (rat, UniProt P15127 27-1383); assay: cell-based or functional assay
Sequence (P15127 27-1383): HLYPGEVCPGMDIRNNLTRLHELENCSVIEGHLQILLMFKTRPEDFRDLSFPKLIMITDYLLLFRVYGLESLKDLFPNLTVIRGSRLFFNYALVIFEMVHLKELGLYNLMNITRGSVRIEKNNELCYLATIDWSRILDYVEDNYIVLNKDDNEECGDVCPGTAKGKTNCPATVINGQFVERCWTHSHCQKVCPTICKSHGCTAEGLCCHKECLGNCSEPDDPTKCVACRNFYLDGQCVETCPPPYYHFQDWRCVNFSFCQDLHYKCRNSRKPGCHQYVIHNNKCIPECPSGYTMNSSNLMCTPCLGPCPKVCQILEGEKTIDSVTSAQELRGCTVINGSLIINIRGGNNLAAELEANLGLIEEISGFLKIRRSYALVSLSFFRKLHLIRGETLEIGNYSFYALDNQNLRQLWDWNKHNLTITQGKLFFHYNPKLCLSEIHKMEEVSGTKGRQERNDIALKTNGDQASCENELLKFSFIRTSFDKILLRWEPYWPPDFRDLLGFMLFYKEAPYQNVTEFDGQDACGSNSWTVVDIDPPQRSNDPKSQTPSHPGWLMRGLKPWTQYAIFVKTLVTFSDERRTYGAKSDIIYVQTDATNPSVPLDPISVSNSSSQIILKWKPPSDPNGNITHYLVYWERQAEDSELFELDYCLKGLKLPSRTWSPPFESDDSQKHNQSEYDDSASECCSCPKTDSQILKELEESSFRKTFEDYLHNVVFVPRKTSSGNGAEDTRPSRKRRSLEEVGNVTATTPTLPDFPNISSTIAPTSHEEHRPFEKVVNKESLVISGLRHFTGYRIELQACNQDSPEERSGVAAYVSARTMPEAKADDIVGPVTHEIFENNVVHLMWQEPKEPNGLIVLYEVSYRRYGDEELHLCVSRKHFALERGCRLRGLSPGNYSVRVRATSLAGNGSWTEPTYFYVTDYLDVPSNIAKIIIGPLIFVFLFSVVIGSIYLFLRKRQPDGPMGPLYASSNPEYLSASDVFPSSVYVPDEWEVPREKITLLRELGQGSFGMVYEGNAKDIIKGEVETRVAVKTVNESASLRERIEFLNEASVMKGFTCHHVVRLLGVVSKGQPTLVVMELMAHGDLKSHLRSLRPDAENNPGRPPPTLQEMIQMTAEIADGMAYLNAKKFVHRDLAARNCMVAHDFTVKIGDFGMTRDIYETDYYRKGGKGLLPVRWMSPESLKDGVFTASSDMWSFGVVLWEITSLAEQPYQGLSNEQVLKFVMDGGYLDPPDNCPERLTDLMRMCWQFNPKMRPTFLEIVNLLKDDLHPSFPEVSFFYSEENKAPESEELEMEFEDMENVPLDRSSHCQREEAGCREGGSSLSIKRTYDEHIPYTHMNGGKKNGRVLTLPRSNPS
In this section we review reported Lipogenesis in rat adipocytes [Potency (%)] Mean Value values for a set of binders.

binder	result.value
(A14E, A21G, A22(GQEP)19, A98K^, A99P, B25H, B29R, desB30 human insulin)/(227A, 234A, 235K hIgG4-Fc(228-447)) … (other, Cys229 (EU numbering) sulphur bound to an acetyl arm of the linker; A98K N(eps) acylated by the trivalent linker 4-[bis[2-[(2-acetyl)amino]ethyl]amino]-4-oxo-butanoyl, Fc made in E. coli; also called Ex 5.1) chain 1: GIVEQCCTSICSLEQLENYCGGQEPGQEPGQEPGQEPGQEPGQEPGQEPGQEPGQEPGQEPGQEPGQEPGQEPGQEPGQEPGQEPGQEPGQEPGQEPKP chain 2: FVNQHLCGSHLVEALYLVCGERGFHYTPR chain 3: ASCPAPEAKGGPSVFLFPPKPKDTLMISRTPEVTCVVVDVSQEDPEVQFNWYVDGVEVHNAKTKPREEQFNSTYRVVSVLTVLHQDWLNGKEYKCKVSNKGLPSSIEKTISKAKGQPREPQVYTLPPSQEEMTKNQVSLTCLVKGFYPSDIAVEWESNGQPENNYKTTPPVLDSDGSFFLYSRLTVDKSRWQEGNVFSCSVMHEALHNHYTQKSLSLSLGK	6.69 % of human insulin

Attention now shifts to the item below.
Exam item: Requested read-out: Lipogenesis in rat adipocytes [Potency (%)] Mean Value. Entry: (A14E, A21G, A22(GQEP)19, A98K^, A99P, B25H, B29R, desB30 human insulin)/(227A, 234A, 235K, 297E, 315Q, 384Q, des447 hIgG4-Fc(228-447)) … (other, Cys229 (EU numbering) sulphur bound to an acetyl arm of the linker; A98K N(eps) acylated by the trivalent linker 4-[bis[2-[(2-acetyl)amino]ethyl]amino]-4-oxo-butanoyl, also called Ex 5.12) chain 1: GIVEQCCTSICSLEQLENYCGGQEPGQEPGQEPGQEPGQEPGQEPGQEPGQEPGQEPGQEPGQEPGQEPGQEPGQEPGQEPGQEPGQEPGQEPGQEPKP chain 2: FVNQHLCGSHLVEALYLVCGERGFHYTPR chain 3: ASCPAPEAKGGPSVFLFPPKPKDTLMISRTPEVTCVVVDVSQEDPEVQFNWYVDGVEVHNAKTKPREEQFESTYRVVSVLTVLHQDWLQGKEYKCKVSNKGLPSSIEKTISKAKGQPREPQVYTLPPSQEEMTKNQVSLTCLVKGFYPSDIAVEWESQGQPENNYKTTPPVLDSDGSFFLYSRLTVDKSRWQEGNVFSCSVMHEALHNHYTQKSLSLSLG
Marked response: 2.35 % of human insulin

Where these numbers come from: patent US20200261595A1
